- System: Oesophagostomum columbianum
- PROTOCOL_DESCRIPTION: Antiparasitic activity against Oesophagostomum columbianum at dose of 0.10 mg/kg in sheep anthelmintic test
- Type: functional
- CONDITION_DETAILS: dose 0.1 mg/kg
A collection of compounds and their measured Reduction

COMPOUND	READOUT_VALUE
CCC(C)[C@H]1O[C@]2(C=C[C@@H]1C)C[C@@H]1C[C@@H](C/C=C(\C)[C@@H](O[C@H]3C[C@H](OC)[C@H](NC(C)=O)[C@H](C)O3)[C@@H](C)/C=C/C=C3\CO[C@@H]4[C@H](O)C(C)=C[C@@H](C(=O)O1)[C@]34O)O2 (stereo not given in full)	76%
CCC(C)[C@H]1O[C@]2(C=C[C@@H]1C)C[C@@H]1C[C@@H](C/C=C(\C)[C@@H](O[C@H]3C[C@H](OC)[C@@H](O[C@H]4C[C@H](OC)[C@H](NC(=O)NC)[C@H](C)O4)[C@H](C)O3)[C@@H](C)/C=C/C=C3\CO[C@@H]4[C@H](O)C(C)=C[C@@H](C(=O)O1)[C@]34O)O2 (stereo not given in full)	>95%
CCC(C)[C@H]1O[C@]2(C=C[C@@H]1C)C[C@@H]1C[C@@H](C/C=C(\C)[C@@H](O[C@H]3C[C@H](OC)[C@@H](O[C@H]4C[C@H](OC)[C@H](NN(C)C)[C@H](C)O4)[C@H](C)O3)[C@@H](C)/C=C/C=C3\CO[C@@H]4[C@H](O)C(C)=C[C@@H](C(=O)O1)[C@]34O)O2 (stereo not given in full)	>95%
CCC(C)[C@H]1O[C@]2(C=C[C@@H]1C)C[C@@H]1C[C@@H](C/C=C(\C)[C@@H](O[C@H]3C[C@H](OC)[C@@H](O[C@H]4C[C@H](OC)[C@@H](N)[C@H](C)O4)[C@H](C)O3)[C@@H](C)/C=C/C=C3\CO[C@@H]4[C@H](O)C(C)=C[C@@H](C(=O)O1)[C@]34O)O2 (stereo not given in full)	>95%

Shifting focus to the compound that follows.
So for CCC(C)[C@H]1O[C@]2(C=C[C@@H]1C)C[C@@H]1C[C@@H](C/C=C(\C)[C@@H](O[C@H]3C[C@H](OC)[C@@H](O[C@H]4C[C@H](OC)[C@H](NC)[C@H](C)O4)[C@H](C)O3)[C@@H](C)/C=C/C=C3\CO[C@@H]4[C@H](O)C(C)=C[C@@H](C(=O)O1)[C@]34O)O2 (stereo not given in full) , the logged Reduction turned out to be >95%

====

- Tested on: Trichostrongylus axei
- PROTOCOL_DESCRIPTION: Antiparasitic activity against Trichostrongylus axei at dose of 0.10 mg/kg in sheep anthelmintic test
- Format: functional
- CONDITION_DETAILS: dose 0.1 mg/kg
OBSERVABLE: Reduction

As a guide, the following entries are already answered.
MOLECULE	Reduction
CCC(C)[C@H]1O[C@]2(C=C[C@@H]1C)C[C@@H]1C[C@@H](C/C=C(\C)[C@@H](O[C@H]3C[C@H](OC)[C@@H](O[C@H]4C[C@H](OC)[C@H](NCCO)[C@H](C)O4)[C@H](C)O3)[C@@H](C)/C=C/C=C3\CO[C@@H]4[C@H](O)C(C)=C[C@@H](C(=O)O1)[C@]34O)O2 (some centres not stated)	<50%
CCC(C)[C@H]1O[C@]2(C=C[C@@H]1C)C[C@@H]1C[C@@H](C/C=C(\C)[C@@H](O[C@H]3C[C@H](OC)[C@@H](O[C@H]4C[C@H](OC)[C@H](NC(=O)C(C)(C)C)[C@H](C)O4)[C@H](C)O3)[C@@H](C)/C=C/C=C3\CO[C@@H]4[C@H](O)C(C)=C[C@@H](C(=O)O1)[C@]34O)O2 (some centres not stated)	76%
CCCCCCCCN[C@@H]1[C@H](C)O[C@@H](O[C@H]2[C@H](C)O[C@@H](O[C@@H]3/C(C)=C/C[C@@H]4C[C@@H](C[C@]5(C=C[C@H](C)[C@@H](C(C)CC)O5)O4)OC(=O)[C@@H]4C=C(C)[C@@H](O)[C@H]5OC/C(=C\C=C\[C@@H]3C)[C@]54O)C[C@@H]2OC)C[C@@H]1OC (some centres not stated)	<50%
CCC(C)[C@H]1O[C@]2(C=C[C@@H]1C)C[C@@H]1C[C@@H](C/C=C(\C)[C@@H](O[C@H]3C[C@H](OC)[C@@H](O[C@H]4C[C@H](OC)[C@@H](O)[C@H](C)O4)[C@H](C)O3)[C@@H](C)/C=C/C=C3\CO[C@@H]4[C@H](O)C(C)=C[C@@H](C(=O)O1)[C@]34O)O2 (some centres not stated) [AVERMECTIN]	>95%
CCC(C)[C@H]1O[C@]2(CC[C@@H]1C)C[C@@H]1C[C@@H](C/C=C(\C)[C@@H](O[C@H]3C[C@H](OC)[C@@H](O[C@H]4C[C@H](OC)[C@H](NC(C)=O)[C@H](C)O4)[C@H](C)O3)[C@@H](C)/C=C/C=C3\CO[C@@H]4[C@H](O)C(C)=C[C@@H](C(=O)O1)[C@]34O)O2 (some centres not stated)	>95%
CCC(C)[C@H]1O[C@]2(C=C[C@@H]1C)C[C@@H]1C[C@@H](C/C=C(\C)[C@@H](O[C@H]3C[C@H](OC)[C@@H](O[C@H]4C[C@H](OC)[C@H](N)[C@H](C)O4)[C@H](C)O3)[C@@H](C)/C=C/C=C3\CO[C@@H]4[C@H](O)C(C)=C[C@@H](C(=O)O1)[C@]34O)O2 (some centres not stated)	<50%
CCC(C)[C@H]1O[C@]2(C=C[C@@H]1C)C[C@@H]1C[C@@H](C/C=C(\C)[C@@H](O[C@H]3C[C@H](OC)[C@@H](O[C@H]4C[C@H](OC)[C@H](NC)[C@H](C)O4)[C@H](C)O3)[C@@H](C)/C=C/C=C3\CO[C@@H]4[C@H](O)C(C)=C[C@@H](C(=O)O1)[C@]34O)O2 (some centres not stated)	>95%
CCC(C)[C@H]1O[C@]2(C=C[C@@H]1C)C[C@@H]1C[C@@H](C/C=C(\C)[C@@H](O[C@H]3C[C@H](OC)[C@@H](O[C@H]4C[C@H](OC)[C@H](NN(C)C)[C@H](C)O4)[C@H](C)O3)[C@@H](C)/C=C/C=C3\CO[C@@H]4[C@H](O)C(C)=C[C@@H](C(=O)O1)[C@]34O)O2 (some centres not stated)	>95%

The molecule listed as CCC(C)[C@H]1O[C@]2(CC(O)[C@@H]1C)C[C@@H]1C[C@@H](C/C=C(\C)[C@@H](O[C@H]3C[C@H](OC)[C@@H](O[C@H]4C[C@H](OC)[C@H](NC(C)=O)[C@H](C)O4)[C@H](C)O3)[C@@H](C)/C=C/C=C3\CO[C@@H]4[C@H](O)C(C)=C[C@@H](C(=O)O1)[C@]34O)O2 (some centres not stated) shows Reduction equal to >95%

Memo: CCC(C)[C@H]1O[C@]2(C=C[C@@H]1C)C[C@@H]1C[C@@H](C/C=C(\C)[C@@H](O[C@H]3C[C@H](OC)[C@@H](O[C@H]4C[C@H](OC)[C@@H](N)[C@H](C)O4)[C@H](C)O3)[C@@H](C)/C=C/C=C3\CO[C@@H]4[C@H](O)C(C)=C[C@@H](C(=O)O1)[C@]34O)O2 (some centres not stated) , reported Reduction: <50%

// Reduction value for CCC(C)[C@H]1O[C@]2(CC[C@@H]1C)C[C@@H]1C[C@@H](C/C=C(\C)[C@@H](O[C@H]3C[C@H](OC)[C@@H](O[C@H]4C[C@H](OC)[C@H](NC(=O)COC)[C@H](C)O4)[C@H](C)O3)[C@@H](C)/C=C/C=C3\CO[C@@H]4[C@H](O)C(C)=C[C@@H](C(=O)O1)[C@]34O)O2 (some centres not stated) : >95%

The reported Reduction of the molecule CCC(C)[C@H]1O[C@]2(C=C[C@@H]1C)C[C@@H]1C[C@@H](C/C=C(\C)[C@@H](O[C@H]3C[C@H](OC)[C@@H](O[C@H]4C[C@H](OC)[C@H](NC(=O)C(F)(F)F)[C@H](C)O4)[C@H](C)O3)[C@@H](C)/C=C/C=C3\CO[C@@H]4[C@H](O)C(C)=C[C@@H](C(=O)O1)[C@]34O)O2 (some centres not stated) was >95%

====

- Test system: Trichostrongylus axei
- PROTOCOL_DESCRIPTION: Antiparasitic activity against Trichostrongylus axei at dose of 0.10 mg/kg in sheep anthelmintic test
- Type: functional
- CONDITION_DETAILS: dose 0.1 mg/kg
OBSERVABLE: Reduction

COMPOUND	READOUT_VALUE
CCC(C)[C@H]1O[C@]2(C=C[C@@H]1C)C[C@@H]1C[C@@H](C/C=C(\C)[C@@H](O[C@H]3C[C@H](OC)[C@@H](O[C@H]4C[C@H](OC)[C@H](NC(=O)NC)[C@H](C)O4)[C@H](C)O3)[C@@H](C)/C=C/C=C3\CO[C@@H]4[C@H](O)C(C)=C[C@@H](C(=O)O1)[C@]34O)O2 (stereo not given in full)	>95%

Lookup result for CCC(C)[C@H]1O[C@]2(C=C[C@@H]1C)C[C@@H]1C[C@@H](C/C=C(\C)[C@@H](O[C@H]3C[C@H](OC)[C@@H](O[C@H]4C[C@H](OC)[C@H](/N=C/N(C)C)[C@H](C)O4)[C@H](C)O3)[C@@H](C)/C=C/C=C3\CO[C@@H]4[C@H](O)C(C)=C[C@@H](C(=O)O1)[C@]34O)O2 (stereo not given in full) ; measured Reduction: 51%

Per the record, CCC(C)[C@H]1O[C@]2(C=C[C@@H]1C)C[C@@H]1C[C@@H](C/C=C(\C)[C@@H](O[C@H]3C[C@H](OC)[C@@H](O[C@H]4C[C@H](OC)[C@H](NC(=O)OC)[C@H](C)O4)[C@H](C)O3)[C@@H](C)/C=C/C=C3\CO[C@@H]4[C@H](O)C(C)=C[C@@H](C(=O)O1)[C@]34O)O2 (stereo not given in full) has Reduction of >95%

Lab book: Reduction of CCC(C)[C@H]1O[C@]2(C=C[C@@H]1C)C[C@@H]1C[C@@H](C/C=C(\C)[C@@H](O[C@H]3C[C@H](OC)[C@H](NC(C)=O)[C@H](C)O3)[C@@H](C)/C=C/C=C3\CO[C@@H]4[C@H](O)C(C)=C[C@@H](C(=O)O1)[C@]34O)O2 (stereo not given in full) noted as >95%

Sure, the documented Reduction for CCC(C)[C@H]1O[C@]2(CC[C@@H]1C)C[C@@H]1C[C@@H](C/C=C(\C)[C@@H](O[C@H]3C[C@H](OC)[C@@H](O[C@H]4C[C@H](OC)[C@H](N)[C@H](C)O4)[C@H](C)O3)[C@@H](C)/C=C/C=C3\CO[C@@H]4[C@H](O)C(C)=C[C@@H](C(=O)O1)[C@]34O)O2 (stereo not given in full) is <50%
